The reported measurements were obtained from PubChem BioAssay AID1033.

- System Under Test: Chaperone protein DnaK (Escherichia coli (strain K12))
- Assay Comment: binders of DnaK substrate-binding domain, biophysical, NMR, chaperone (AID 1033)
- Condition Notes: Purified DnaK SBD, NMR ligand binding
Calls of active or inactive are those of the source. How the calls were made is not given here.
As shown below, each of these compounds has a reported Kd value.

Please give the documented Kd of Cn1cc(Cl)c(C(=O)NC2CCCCCC2)n1
> 4 mM (inactive)

Please give the documented Kd of O=C(O)CNc1ncnc2nc[nH]c12
> 4 mM (inactive)

Please give the documented Kd of NC1CS(=O)(=O)CC1O (configuration not stated)
> 4 mM (inactive)

Please give the documented Kd of CCOC(=O)c1[nH]c(C)cc1C
> 4 mM (inactive)

* * *

As shown below, each of these molecules has a reported Kd value.
- System Under Test: Chaperone protein DnaK (Escherichia coli (strain K12)) (UniProt P0A6Y8)
- Sequence (P0A6Y8 whole entry, looked up, the tested form may be a part): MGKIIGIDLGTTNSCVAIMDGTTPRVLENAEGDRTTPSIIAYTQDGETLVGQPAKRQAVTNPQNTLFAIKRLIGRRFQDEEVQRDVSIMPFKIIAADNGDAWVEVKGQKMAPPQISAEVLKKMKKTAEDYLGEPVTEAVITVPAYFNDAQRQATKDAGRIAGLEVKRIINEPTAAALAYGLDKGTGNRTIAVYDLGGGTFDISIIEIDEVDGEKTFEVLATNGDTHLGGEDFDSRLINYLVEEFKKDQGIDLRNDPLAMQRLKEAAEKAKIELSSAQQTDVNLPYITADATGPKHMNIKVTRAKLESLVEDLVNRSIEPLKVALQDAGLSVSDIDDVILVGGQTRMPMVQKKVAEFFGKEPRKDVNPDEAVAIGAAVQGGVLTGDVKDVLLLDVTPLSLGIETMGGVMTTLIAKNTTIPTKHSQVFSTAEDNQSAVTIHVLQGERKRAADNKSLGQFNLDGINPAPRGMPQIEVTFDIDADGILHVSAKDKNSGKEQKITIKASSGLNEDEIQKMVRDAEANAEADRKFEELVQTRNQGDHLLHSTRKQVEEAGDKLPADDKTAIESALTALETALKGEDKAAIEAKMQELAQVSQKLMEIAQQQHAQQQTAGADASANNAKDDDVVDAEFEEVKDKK
- Assay Comment: binders of DnaK substrate-binding domain, biophysical, NMR, chaperone (AID 1033)
- Condition Notes: Purified DnaK SBD, NMR ligand binding
Calls of active or inactive are those of the source. No rule for the calls is given here.

- O=C1CCN(c2ccccc2)N1: > 4 mM (inactive)
- COc1ccc(-c2c(C)n([O-])c(C)c(C)[n+]2=O)cc1: > 4 mM (inactive)
- O=C(O)c1cccc2c1OCCO2: > 4 mM (inactive)
- O=C(CSc1nc2ccccc2[nH]1)N1CCCCC1: > 4 mM (inactive)

Please give the documented Kd of CC(NC(=O)C1CCCCC1)C(=O)NC1=NCCS1 (stereo unspecified)
> 4 mM (inactive)

Please give the documented Kd of CCOC(=O)N1CCN(c2ncnc3c2cnn3C)CC1
> 4 mM (inactive)

Please give the documented Kd of Cc1c(N=Cc2ccc[nH]2)c(=O)n(-c2ccccc2)n1C
> 4 mM (inactive)

Please give the documented Kd of OCCNC(=S)Nc1ccc(F)cc1
> 4 mM (inactive)

Please give the documented Kd of CC(C)=CCc1c(O)cc2occ(-c3ccc4c(c3)OCO4)c(=O)c2c1O
> 4 mM (inactive)

Please give the documented Kd of O=S1(=O)CCC(NCc2ccccc2)C1 (stereo unspecified)
> 4 mM (inactive)

Please give the documented Kd of O=C(O)c1csc(-c2cccs2)n1
> 4 mM (inactive)

Please give the documented Kd of COc1ccc(S(=O)(=O)N2CCC(C(N)=O)CC2)cc1
> 4 mM (inactive)

* * *

- System Under Test: Chaperone protein DnaK (Escherichia coli (strain K12))
- Assay Comment: binders of DnaK substrate-binding domain, biophysical, NMR, chaperone (AID 1033)
- Condition Notes: Purified DnaK SBD, NMR ligand binding
Active and inactive are the calls of the source. No rule for the calls is given here.
As shown below, each of these compounds has a reported Kd value.

Solved cases below.
• O=S(=O)(Nc1ccc2c(c1)OCCO2)c1cccs1 = > 4 mM (inactive)
• CS/C(N)=C\C(C)=O = > 4 mM (inactive)
• CC(=O)Nc1ccc2c(C)cc(=O)[nH]c2c1 = > 4 mM (inactive)
• Cc1cc(C)n(C2CCS(=O)(=O)C2)n1 (stereo unspecified) = > 4 mM (inactive)
• Nn1c(CN2CCCCC2)nc2ccccc2c1=O = > 4 mM (inactive)

Please give the documented Kd of Cn1cc(Cl)c(C(=O)Nc2ccncc2)n1
> 4 mM (inactive)

Please give the documented Kd of Nc1cc(C(F)(F)F)ccc1N1CCOCC1
> 4 mM (inactive)

Please give the documented Kd of CN1CCN(C(=S)NC(=O)c2ccn(C)n2)CC1
> 4 mM (inactive)

Please give the documented Kd of c1cncc(-c2nnc(-c3cccnc3)nn2)c1
> 4 mM (inactive)

Please give the documented Kd of Cc1cc(NC(=O)Cc2c(F)cccc2Cl)no1
> 4 mM (inactive)

Please give the documented Kd of Cc1nn2c3ccccc3nc2n(Cc2ccccc2)c1=O
> 4 mM (inactive)
